Reported GI50 values, MDA-MB-435.

Answered cases to consult:
- O=C1NC(=O)N(S(=O)(=O)c2cc(C(=O)Nc3ccc(Cl)cc3)c(Cl)cc2S)S(=O)(=O)N1: 18500 nM
- O=C1NC(=O)C2C3C=CC(C12)C1C2C(=O)NC(=O)C2C31 (stereo not given): > 250000 nM
- CC[C@]12C=CCN3CC[C@@]4(c5ccc(OC)cc5N(C)[C@H]4[C@@](O)(C(=O)OC)[C@@H]1OC(=O)CCCN1CCN(CCCC(=O)O[C@@H]4[C@]5(CC)C=CCN6CC[C@@]7(c8ccc(OC)cc8N(C)[C@H]7[C@@]4(O)C(=O)OC)[C@@H]65)CC1)[C@@H]32: 1250 nM
- CN(C)c1ccc(/C=N/N=C(\C#N)[S][Sn]([Cl])([c]2ccccc2)[c]2ccccc2)cc1: 1500 nM
- O=C1NC(=NCc2cccs2)O/C1=C\c1ccc2ncccc2c1: 4510 nM

What value of GI50 has been reported for the following compound? COc1ccc([C@@H]2[C@@H](Oc3ccccc3)C(=O)N2c2cc(OC)c(OC)c(OC)c2)cc1F
26.4 nM

GI50 for CC(=O)O[C@H]1C[C@@H]2[C@@]3(C)CC[C@H]4C[C@@]4(C)[C@@H]3CC[C@@]2(C)C2=CCC3=C(COC3=O)[C@]21C ?
22600 nM

Please report the recorded GI50 for CCN1CCN(CC(=O)Nc2nc3ccc(NCc4ccc(Br)cc4)cc3s2)CC1 .
1690 nM

Item FC(F)(F)c1cccc(CNC2CCN(CCc3ccccc3)CC2)c1 has what recorded GI50?
15900 nM

Which GI50 value belongs to Oc1c(Br)cc(Cl)cc1C(c1cc(Cl)cc(Br)c1O)C(Cl)(Cl)Cl ?
2940 nM
